Entries and their measured binding signal follow.
# Tested target: von Willebrand factor A1 domain (human) (Homo sapiens, UniProt P04275 SEQ:13-246)
# Sequence (P04275 1238-1471 T1381A): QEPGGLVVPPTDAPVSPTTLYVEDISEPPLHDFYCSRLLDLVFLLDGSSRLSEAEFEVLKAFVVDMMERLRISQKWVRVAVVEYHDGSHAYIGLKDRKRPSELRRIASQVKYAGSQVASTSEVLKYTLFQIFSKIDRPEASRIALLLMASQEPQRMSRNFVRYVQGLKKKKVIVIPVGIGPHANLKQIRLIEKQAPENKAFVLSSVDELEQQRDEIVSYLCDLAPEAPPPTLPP
# Procedure details: filter; 100 nM protein
# Excerpt: When a significant positive ratio of binding of RNA in the presence of human or rabbit vWF A1 domain versus in the absence of protein was seen, the pools were cloned using the TOPO TA cloning kit (Invitrogen, Cat.# 45-0641, Carlsbad, Calif.) according to the manufacturer's instructions. Round 9 and 12 pool templates were cloned and sequenced (125 total sequences), producing 48 unique clones. […]

// below: answered binders
## Task Reported binding signal for AMX201.A8 (ssRNA, 2'-F pyrimidines) RNA: GGAGCGCACUCAGCCACGCUGUACACUGAUGUUGUAACAUGUACCCCCUGGCUGUUUCGACCUCUCUGCUAGC : what is it?
## Result 1.82 ratio to no protein

## Task Also check AMX201.D3 (ssRNA, 2'-F pyrimidines) RNA: GGAGCGCACUCAGCCACGCCCACGUCAAAUUAUAGUCUACUUUGAUGUGCCCGUGGUUUCGACCUCUCUGCUAGC
## Result 1.76 ratio to no protein

## Task What would you report for AMX201.B11 (ssRNA, 2'-F pyrimidines) RNA: GGAGCGCACUCAGCCACACCGAGGCUGGAUAUCUACGAGAGGAAGUGCUGCUUGAAUUUCGACCUCUCUGCUAGC ?
## Result 1.55 ratio to no protein

## Task And then AMX201.B3 (ssRNA, 2'-F pyrimidines) RNA: GGAGCGCACUCAGCCACAGAGCCCUGAGUGUAUGAUCGCCGAGAUCUAUCGAUGCUUUUUCGACCUCUCUGCUAGC , what is it?
## Result 1.69 ratio to no protein

## Task Lookup AMX201.D10 (ssRNA, 2'-F pyrimidines) RNA: GGAGCGCACUCAGCCACACUGAGGCUGGAUAUCUACGAGAGGAAGUGCUGCUUGGAUUUCGACCUCUCUGCUAGC
## Result 1.59 ratio to no protein

Continuing:
## Task What binding signal value was documented for this binder, AMX201.D4 (ssRNA, 2'-F pyrimidines) RNA: GGAGCGCACUCAGCCACUGGGGCUGAUCUCGCACGAUAGUUCGUGUCAAGGAUGCGUUUUCGACCUCUCUGCUAGC ?
## Result 2.23 ratio to no protein

## Task AMX201.H4 (ssRNA, 2'-F pyrimidines) RNA: GGAGCGCACUCAGCCACUAACGGUUGAUCUCAGGACUAAUAGUCAACAAGGAUGCGUUUCGACCUCUCUGCUAGC ?
## Result 1.79 ratio to no protein

## Task Further, for AMX201.H11 (ssRNA, 2'-F pyrimidines) RNA: GGAGCGCACUCAGCCACCCUGUCGUCUUUUGGUAGUCAGCCAAAAGCUAGUUGGUUGUUUCGACCUCUCUGCUAGC ?
## Result 1.75 ratio to no protein
